MEASUREMENT_TARGET: human RXFP1 (Homo sapiens, UniProt Q9HBX9)
Sequence (Q9HBX9 whole entry): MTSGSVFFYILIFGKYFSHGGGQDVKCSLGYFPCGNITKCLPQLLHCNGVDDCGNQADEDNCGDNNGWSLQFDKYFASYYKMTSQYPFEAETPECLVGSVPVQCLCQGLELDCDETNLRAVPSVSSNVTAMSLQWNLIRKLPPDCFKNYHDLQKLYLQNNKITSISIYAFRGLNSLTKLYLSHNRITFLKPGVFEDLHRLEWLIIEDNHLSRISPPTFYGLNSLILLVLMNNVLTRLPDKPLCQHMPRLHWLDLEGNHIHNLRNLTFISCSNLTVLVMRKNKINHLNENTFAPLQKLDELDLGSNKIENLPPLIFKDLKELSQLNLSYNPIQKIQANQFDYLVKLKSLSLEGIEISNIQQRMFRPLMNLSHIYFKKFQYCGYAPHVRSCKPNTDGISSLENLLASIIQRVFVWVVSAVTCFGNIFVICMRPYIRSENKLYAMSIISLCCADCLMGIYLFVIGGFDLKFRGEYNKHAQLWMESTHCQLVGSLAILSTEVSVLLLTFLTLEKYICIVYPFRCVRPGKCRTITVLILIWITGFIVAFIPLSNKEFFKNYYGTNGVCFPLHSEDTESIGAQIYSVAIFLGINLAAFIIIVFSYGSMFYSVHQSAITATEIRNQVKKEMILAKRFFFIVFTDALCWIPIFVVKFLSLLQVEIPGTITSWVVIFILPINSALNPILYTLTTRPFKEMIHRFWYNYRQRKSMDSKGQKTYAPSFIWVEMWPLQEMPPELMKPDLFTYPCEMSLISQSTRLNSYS
ASSAY_OVERVIEW: hRXFP1 HEK293 cAMP assay (HTRF)
CONDITION_DESCRIPTION: HEK293 cells stably expressing human RXFP1, 30 min at room temperature
Procedure: RXFP1 Cyclic Adenosine Monophosphate (cAMP) Assays. […] Cells were dissociated and suspended in assay buffer. The assay buffer was HBSS buffer (with calcium and magnesium) containing 20 mM HEPES, 0.05% BSA, and 0.5 mM IBMX. […] The level of intracellular cAMP was determined using the HTRF HiRange cAMP assay reagent kit (Cisbio) according to manufacturer's instructions. […]
Response field label: string, one of 1.0 (EC50 strictly below 100 nM) or 0.0.

{"COMPOUND": "COc1ccc(C(=O)N2CCC(S(C)(=O)=O)CC2)cc1C(=O)N[C@H]1[C@@H](C(=O)Nc2ccc(F)c(C(F)(F)F)c2)[C@H]2CC[C@@H]1/C2=C\\C1CC1", "CLASSIFICATION": 1.0}

Strictly below 100 nM in EC50? COc1ccc([C@H]2C[C@@H](O)C2)cc1C(=O)NC1C2CCC(/C2=C/C2CC2)[C@@H]1C(=O)Nc1ccc(F)c(C(F)(F)F)c1 (stereo partly drawn)
1.0

is_below(EC50, 100 nM) for COc1ccc(S(=O)(=O)N2CCN3C(=O)CCC3C2)cc1C(=O)N[C@H]1[C@@H](C(=O)Nc2ccc(F)c(C(F)(F)F)c2)[C@H]2CC[C@@H]1/C2=C\C1CC1 (stereo partly drawn) ?
0.0

meta.source: patent US20250268903A1
